Assign inhibition at 10 µM to each entry below.
# Tested on: SF-268
# protocol_text: NCI 60 antitumor screening (single dose)
# Format: cell-based
# measurement_conditions: Homo sapiens; SF-268 (CNS cancer), single dose 10 μM; read-out: Growth inhibition percentage (GI %)
Give bare numbers, in %.

List reported inhibition at 10 µM for each of these compounds:
1. Oc1ccc(/C=N/Nc2nc(N/N=C/c3ccc(O)c(O)c3)nc(N3CCOCC3)n2)cc1O
2. Fc1cccc(Cl)c1/C=N/Nc1nc(N/N=C/c2c(F)cccc2Cl)nc(N2CCCCC2)n1
3. CN(C)c1ccc(/C=N/Nc2nc(N/N=C/c3ccc(N(C)C)cc3)nc(N3CCOCC3)n2)cc1
4. Brc1cccc(/C=N/Nc2nc(N/N=C/c3cccc(Br)c3)nc(N3CCCCC3)n2)c1

1. -2.53
2. 63.3
3. 2.19
4. -5.8

// each compound listed below needs its inhibition at 10 µM
1. O=[N+]([O-])c1cccc(/C=N/Nc2nc(N/N=C/c3cccc([N+](=O)[O-])c3)nc(N3CCOCC3)n2)c1
2. CN(C)c1ccc(/C=N/Nc2nc(N/N=C/c3ccc(N(C)C)cc3)nc(N3CCCCC3)n2)cc1

[6.36, -5.33]
